The reported measurements were obtained from PubChem BioAssay AID588519.

experimental.target: Genome polyprotein (Poliovirus type 1 (strain Mahoney)) (UniProt P03300)
Sequence (P03300 1749-2209 limits assumed): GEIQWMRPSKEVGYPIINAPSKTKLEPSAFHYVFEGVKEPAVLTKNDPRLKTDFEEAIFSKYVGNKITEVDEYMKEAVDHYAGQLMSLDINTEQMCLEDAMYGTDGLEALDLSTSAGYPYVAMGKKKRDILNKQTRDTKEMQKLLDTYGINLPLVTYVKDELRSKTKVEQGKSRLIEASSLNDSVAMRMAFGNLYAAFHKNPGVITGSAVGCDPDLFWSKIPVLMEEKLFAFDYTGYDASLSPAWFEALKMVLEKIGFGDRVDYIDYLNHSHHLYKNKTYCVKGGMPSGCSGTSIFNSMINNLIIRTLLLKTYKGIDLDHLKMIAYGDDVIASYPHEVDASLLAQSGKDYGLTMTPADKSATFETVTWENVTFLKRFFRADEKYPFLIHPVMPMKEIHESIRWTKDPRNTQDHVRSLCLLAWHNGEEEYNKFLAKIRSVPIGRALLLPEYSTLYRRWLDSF
assay.explanation: poliovirus RdRp elongation inhibitors, primary screen, biochemical, fluorescence polarization, total intensity (AID 588519)
conditions.used: poliovirus polymerase elongation, measured here: FP z-score, stronger effect = lower value
Hit rate of the full screen: of about 150,000 compounds, about 1,000 (0.67%) were called active. Shown is part of a subset that was picked to be rich in actives.
Sorting guide: entries reporting z-score beneath -0.2 go in the 1.0 pile, the rest go in the 0.0 pile.

NS(=O)(=O)c1ccc(CCN(Cc2nc3ccsc3c(=O)[nH]2)Cc2nc3ccsc3c(=O)[nH]2)cc1    0.0
COC(=O)CSc1nnc2c(n1)[nH]c1ccccc12    0.0
O=C(c1ccccc1)N1CCN(c2cccc(Cl)c2)CC1    1.0

From here, focus on the item given below.
Task item: Please let me know if Cc1cc(C)c(C(N)=O)c(SCC(=O)Nc2c(C)n(C)n(-c3ccccc3)c2=O)n1 shows z-score below -0.2.
Reply: 0.0

====

% elongation values, listed per item
experimental.target: Genome polyprotein (Poliovirus type 1 (strain Mahoney)) (UniProt P03300)
assay.explanation: poliovirus RdRp elongation inhibitors, primary screen, biochemical, fluorescence polarization, total intensity (AID 588519)
conditions.used: poliovirus polymerase elongation, measured here: total intensity read-out, stronger effect = lower value, compound at 16.7 µg/mL
The campaign covered roughly 150,000 compounds. About 1,000 (0.67%) were called active. The full list was thinned out, with actives kept by preference.
Please state the figure in %; there is no need to write the unit.

The examples below pair each entry with its known result.
CCN(CC)S(=O)(=O)c1cc(C(=O)N2CCN(Cc3ccc4c(c3)OCO4)CC2)ccc1Cl    109
O=C(O)CCCN1C(=O)/C(=C2\SC(=S)N(CCCC(=O)O)C2=O)SC1=S    86
CCN(C(=O)CN1CCCCC1)c1nc2ccc(C)cc2s1    103
O=C(Nc1ccccc1I)C1CCCO1 (configuration not stated)    100

Task item: Quick check: % elongation of O=C(Nc1ccc(S(=O)(=O)C(F)F)cc1)c1cccnc1N1CCCC1 ?
Reply: 104

Task item: Entry Cc1ccc2[nH]c(=O)c(CNCCCN(C)C)cc2c1 please
Reply: 102

Task item: Entry COC(=O)CC(N)c1ccc(Cl)cc1 (configuration not stated) please
Reply: 106

Task item: Entry COc1ccc(C(C#N)OC(C)=O)c(OCc2ccccc2)c1OC (configuration not stated) please
Reply: 102

Task item: Entry CCCCCCn1nnc2sc(-c3ccccc3)cc2c1=O please
Reply: 118

====

experimental.target: Genome polyprotein (Poliovirus type 1 (strain Mahoney)) (UniProt P03300)
assay.explanation: poliovirus RdRp elongation inhibitors, primary screen, biochemical, fluorescence polarization, total intensity (AID 588519)
conditions.used: poliovirus polymerase elongation, measured here: total intensity read-out, stronger effect = lower value, compound at 16.7 µg/mL
In all, about 150,000 compounds went through this assay and about 1,000 (0.67%) were called active. The list comes from a sample in which actives are over-represented; it also holds close analogues and randomly drawn compounds.
value.type: % elongation (%)
Please state the figure in %; there is no need to write the unit.

The examples below pair each entry with its known result.
Cc1cc(Sc2nnc(C)s2)c2ccccc2n1    83
CC1CC(C)CN(C(=O)COC(=O)c2ccc(C#N)cc2)C1 (configuration not stated)    102
O=C(CSc1nnnn1-c1ccccc1)NCCC12CC3CC(CC(C3)C1)C2    107
Fc1ccc(NC(=S)N2CCN=C2Nc2ccc(F)cc2)cc1    82
CCc1nc(NCc2ccccc2)c(C#N)c2c1COC(C)(C)C2    112
NC(=S)N1CCCCC1    100
Cc1cc(Nc2ccc(Cl)cc2)c2ccccc2n1    93
Cc1ccc2nc(C)cc(Nc3ccccc3)c2c1    105

Shifting focus to the compound that follows.
Task item: Quick check: % elongation of CCC(=O)Nc1ccc(C(=O)n2nnc3ccccc32)cc1 ?
Reply: 102

====

experimental.target: Genome polyprotein (Poliovirus type 1 (strain Mahoney)) (UniProt P03300)
assay.explanation: poliovirus RdRp elongation inhibitors, primary screen, biochemical, fluorescence polarization, total intensity (AID 588519)
conditions.used: poliovirus polymerase elongation, stronger effect = lower value, compound at 16.7 µg/mL
The campaign covered roughly 150,000 compounds. About 1,000 (0.67%) were called active. For the sample, actives were picked, then their nearest neighbours and some compounds at random.
value.type: % elongation (%)
Please state the figure in %; there is no need to write the unit.

Cc1ccc(NC(=O)C2C3C=CC4(O3)C2C(=O)N(CCCN2CCOCC2)C4C(=O)NC2CCCC(C)C2C)cc1Cl (stereo not drawn)    101
O=C(Sc1ccc(Oc2ccc(SC(=O)c3ccco3)cc2)cc1)c1ccco1    44
O=C(c1cccc(Cl)c1)N1CCN(CCc2ccncc2)CC1    21
CCc1c(C)sc(NC(=O)c2cccs2)c1C(N)=O    74

Task item: Quick check: % elongation of CCC(C)NC(=O)C1c2ccccc2C(=O)N1Cc1ccccc1 (stereo not drawn) ?
Reply: 102

Task item: Entry COC(=O)c1sc(C)cc1OC(=O)c1ccc(OC)cc1 please
Reply: 99

====

experimental.target: Genome polyprotein (Poliovirus type 1 (strain Mahoney)) (UniProt P03300)
assay.explanation: poliovirus RdRp elongation inhibitors, primary screen, biochemical, fluorescence polarization, total intensity (AID 588519)
conditions.used: poliovirus polymerase elongation, stronger effect = lower value, compound at 16.7 µg/mL
About 1,000 (0.67%) of roughly 150,000 compounds were called active. This excerpt belongs to a sample that is enriched for actives.
% elongation values, listed per item
Please state the figure in %; there is no need to write the unit.

The examples below pair each entry with its known result.
CCOc1cc(C2C(C(=O)OC)=C(C)NC3=C2C(=O)c2ccccc23)ccc1O (stereo not drawn)    112
COC(=O)CC(N)c1ccc(Cl)cc1 (stereo not drawn)    103
NC[C@@H]1O[C@H](O[C@@H]2[C@@H](CO)OC(O[C@@H]3[C@@H](O)[C@H](N)C[C@H](N)[C@H]3OC3O[C@H](CN)[C@@H](O)[C@H](O)[C@H]3N)[C@@H]2O)[C@H](N)[C@@H](O)[C@@H]1O (stereo partly drawn)    87
Cc1ccc(-c2nc(S(=O)(=O)c3ccc(C)cc3)c(N3CCCCCC3)o2)cc1    100
CCCCCCn1nnc2sc(-c3ccccc3)cc2c1=O    121
Cc1ccc(-n2cc[nH]c(=O)c2=O)cc1    103

Task item: Provide value of % elongation for this record tested with Genome polyprotein (Poliovirus type 1 (strain Mahoney)) (UniProt P03300): O=C(NC1CCCCC1)c1ccc(-n2ccc3ccccc32)s1
Reply: 100

Task item: Entry COC(=O)CSc1nnc2c(n1)[nH]c1ccccc12 please
Reply: 102

Task item: Entry Cc1nc2ccccc2nc1OCC(=O)N(C1CCCCC1)C1CCCCC1 please
Reply: 99

Task item: Entry Cc1cc(Nc2ccc(Cl)cc2)c2ccccc2n1 please
Reply: 92

====

experimental.target: Genome polyprotein (Poliovirus type 1 (strain Mahoney)) (UniProt P03300)
assay.explanation: poliovirus RdRp elongation inhibitors, primary screen, biochemical, fluorescence polarization, total intensity (AID 588519)
conditions.used: poliovirus polymerase elongation, stronger effect = lower value, compound at 16.7 µg/mL
The campaign covered roughly 150,000 compounds. About 1,000 (0.67%) were called active. For the sample, actives were picked, then their nearest neighbours and some compounds at random.
value.type: % elongation (%)
Please state the figure in %; there is no need to write the unit.

The examples below pair each entry with its known result.
CCOCCCNC(=O)c1c(NC(=O)Cc2coc3ccc(C)cc23)sc2c1CCC2    116
O=C(NCc1ccco1)c1cc(Cl)cc(Cl)c1    99
c1ccc2cc3cnccc3cc2c1    100

Task item: Provide value of % elongation for this record tested with Genome polyprotein (Poliovirus type 1 (strain Mahoney)) (UniProt P03300): N#Cc1ccc(COC(=O)Cc2noc3ccccc23)cc1
Reply: 109

Task item: Entry CCN(CC)CCNC(=O)c1cc2c(=O)oc3ccc(C)cc3c2s1 please
Reply: 89

Task item: Entry CSC(=S)Nc1ccc(C)cc1 please
Reply: 100

Task item: Entry Sc1ccc2ccccc2c1 please
Reply: 90

Task item: Entry CCCc1nc2c3ccccc3ncn2n1 please
Reply: 105

Task item: Entry CCSc1nnc(NC(=O)c2ccc(C)c(S(=O)(=O)N(CC)CC)c2)s1 please
Reply: 100

Task item: Entry O=C(O)CSc1ccc(S(=O)(=O)N2CCCC2)cn1 please
Reply: 105

Task item: Entry O=C(CSc1nnc2ccccn12)c1ccccc1 please
Reply: 101

====

experimental.target: Genome polyprotein (Poliovirus type 1 (strain Mahoney))
assay.explanation: poliovirus RdRp elongation inhibitors, primary screen, biochemical, fluorescence polarization, total intensity (AID 588519)
conditions.used: poliovirus polymerase elongation, measured here: total intensity read-out, stronger effect = lower value, compound at 16.7 µg/mL
Screen size: about 150,000 compounds; about 1,000 (0.67%) were called active. What follows is part of a selection rich in actives, with near analogues and random picks from the rest.
% elongation values, listed per item
Please state the figure in %; there is no need to write the unit.

The examples below pair each entry with its known result.
CCCCN(C)C(=O)C1CCCN(c2nnc(C)c3c(C)n(-c4ccccc4)nc23)C1 (stereo unspecified)    103
Cc1cc(=O)[nH]c(SC(C)C(=O)NC2CCCCC2)n1 (stereo unspecified)    103
Cc1nc2ccccc2nc1OCC(=O)N(C1CCCCC1)C1CCCCC1    97

Shifting focus to the molecule that follows.
Task item: Quick check: % elongation of O=S(=O)(NC1CCCCC1N1CCCCC1)c1ccc(Cl)cc1 (stereo unspecified) ?
Reply: 96
